Target: Tyrosinase (Agaricus bisporus)
Sequence (O42713 whole entry): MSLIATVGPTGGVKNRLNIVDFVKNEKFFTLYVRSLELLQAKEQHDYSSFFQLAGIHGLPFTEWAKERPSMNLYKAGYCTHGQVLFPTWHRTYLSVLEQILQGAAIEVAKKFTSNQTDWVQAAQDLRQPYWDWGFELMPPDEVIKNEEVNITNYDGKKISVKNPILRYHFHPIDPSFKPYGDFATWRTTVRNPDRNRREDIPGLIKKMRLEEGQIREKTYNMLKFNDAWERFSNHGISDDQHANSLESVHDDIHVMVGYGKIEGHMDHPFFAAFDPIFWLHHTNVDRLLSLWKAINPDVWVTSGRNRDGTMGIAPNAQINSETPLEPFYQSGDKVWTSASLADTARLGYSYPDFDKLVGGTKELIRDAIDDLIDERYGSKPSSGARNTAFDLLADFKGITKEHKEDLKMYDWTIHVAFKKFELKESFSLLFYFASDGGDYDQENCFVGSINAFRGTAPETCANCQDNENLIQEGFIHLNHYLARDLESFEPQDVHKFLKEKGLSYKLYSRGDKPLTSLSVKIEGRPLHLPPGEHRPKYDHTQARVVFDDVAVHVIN
OBSERVATION_TYPE: IC50 (µM)
Expressed in µM, but write only the number.

Query block: Which IC50 is listed for C/C(=N\NC(N)=S)c1ccco1 ?
Result block: 0.824

Query block: Which IC50 is listed for NC(=S)N/N=C/c1ccccc1Cl ?
Result block: 1.22

Query block: Which IC50 is listed for C/C(=N\NC(N)=S)c1cccs1 ?
Result block: 1.41

Query block: Which IC50 is listed for CN(C)c1ccc(/C=N/NC(=S)Nc2ccccc2)cc1 ?
Result block: 0.8

The reported measurements were obtained from ChEMBL document CHEMBL4368896.
